Each item that follows carries a reported inhibition.
Target: ATP-binding cassette sub-family B member 6 (Homo sapiens) (UniProt Q9NP58)
Sequence (Q9NP58 whole entry, looked up): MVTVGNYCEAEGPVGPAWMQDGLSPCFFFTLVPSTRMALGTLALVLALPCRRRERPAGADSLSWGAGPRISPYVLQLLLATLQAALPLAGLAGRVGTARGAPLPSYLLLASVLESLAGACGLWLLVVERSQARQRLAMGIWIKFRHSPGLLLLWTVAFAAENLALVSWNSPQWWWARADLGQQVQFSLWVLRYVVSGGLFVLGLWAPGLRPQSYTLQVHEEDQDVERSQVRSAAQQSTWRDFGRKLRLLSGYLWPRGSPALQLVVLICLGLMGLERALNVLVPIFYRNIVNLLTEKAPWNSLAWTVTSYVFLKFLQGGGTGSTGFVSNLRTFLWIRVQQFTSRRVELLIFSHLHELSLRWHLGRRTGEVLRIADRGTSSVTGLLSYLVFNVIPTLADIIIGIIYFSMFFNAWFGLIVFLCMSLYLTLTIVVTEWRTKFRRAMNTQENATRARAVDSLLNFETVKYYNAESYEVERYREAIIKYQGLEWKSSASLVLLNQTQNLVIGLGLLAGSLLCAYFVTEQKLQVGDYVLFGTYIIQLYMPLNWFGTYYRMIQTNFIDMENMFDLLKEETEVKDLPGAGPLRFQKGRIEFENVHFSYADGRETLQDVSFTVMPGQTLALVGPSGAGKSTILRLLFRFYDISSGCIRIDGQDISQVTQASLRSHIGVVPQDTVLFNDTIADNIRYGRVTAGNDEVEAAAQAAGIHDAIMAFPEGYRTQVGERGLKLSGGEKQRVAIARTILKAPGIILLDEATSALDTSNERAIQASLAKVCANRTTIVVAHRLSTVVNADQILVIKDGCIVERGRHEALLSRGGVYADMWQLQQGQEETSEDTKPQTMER
Assay: ABCB6 transporter inhibitors, pilot screen, K562-ABCB6 cells, flow cytometry, validation set (AID 588550);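 also: 0% = DMSO wells and 100% = benzethonium chloride 70 µM positive control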
Details: K562-ABCB6 porphyrin accumulation, 1 h, at 10 µM, active compounds read high
Enter your answer as a number in %; do not include the unit.

These recorded examples may help you get a feel for the data.
Cc1cnc(C(=O)N2CCCC(C(=O)c3ccc(Cl)cc3C)C2)cn1 (stereo unspecified) : -25
O=C(c1ccccc1F)c1cc2c(cc1[N+](=O)[O-])OCCO2 : 7
CC(C)NNC(=O)c1ccncc1 : 3

For the compound shown here, Nc1nc2c(ncn2COC(CO)CO)c(=O)[nH]1 , give the reported inhibition.
5

Now this one: O=C(Nc1cccc(-c2nc3ncccc3o2)c1)c1ccccc1
0

Try O=C1N=c2ccccc2=C1c1[nH]c(=S)[nH]c1O next.
8

* * *

Test: promoters of myeloid differentiation in arrested cells, primary screen, cell-based, GFP/MAC1 double positive, flow cytometry, validation set (AID 588685);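 also: compound exposure lasts four days before antibody staining and flow analysis; 0% = DMSO wells and 100% = 5 µM fulvestrant positive control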
Conditions: ER-HoxA9 marrow cells, active compounds read high, normalized: vehicle 0, fulvestrant 100
Label scheme for differentiation response: lower than -10% is f, -10% and above is t.

Please review the following examples before continuing.
Cc1ccc2c(c1)C(O)(CC(=O)/C=C/C=C/c1ccccc1)C(=O)N2 (stereo not drawn) : t
CC1(C)CC(=O)C(C2(O)C(=O)Nc3ccccc32)CO1 (stereo not drawn) : f
c1ccc2c(CC3=NCCN3)cccc2c1 : t
CCOC(=O)c1ccc2[nH]c(C)c(CCC(C)=O)c(=O)c2c1 : f
COc1ccc(C2(CCN=Cc3ccc(N(C)C)cc3)CCOC(C)(C)C2)cc1 (stereo not drawn) : t

Record O=C1C=CC(=O)C(C2=C3C(=O)N(CCc4ccccc4)CC(=O)N3CCC2)=C1 ; criterion: differentiation response no lower than -10%. Met?
f

Further, for CC#C[C@]1(O)CC[C@H]2[C@@H]3CCC4=CC(=O)CCC4=C3[C@@H](c3ccc(N(C)C)cc3)C[C@@]21C ?
f

CC(=O)Nc1cc(O)cc(O)c1 ?
t

Now consider Cc1c(OC(=O)CNC(=O)OC(C)(C)C)ccc2c3c(c(=O)oc12)CCC3 and answer again.
t

Also CN1CCN(CCCN2c3ccccc3Sc3ccc(C(F)(F)F)cc32)CC1 , if possible.
t

Lookup O=C(CCN1CCC(c2ccccc2)C1)c1ccc2c(c1)OCCO2 (stereo not drawn)
t

Could you do the same for CC1(C)C2CCC1(C)C(OCC[N+](C)(C)CC(=O)OC1CCCCC1)C2 (stereo not drawn) , please?
t

Record: CCN(CC)C1=C(Cl)C(=O)C(Cl)C12OCCO2 (stereo not drawn)
t

* * *

The reader will find reported GFP response vs DMSO values listed item by item below.
Assay: modulators of MEP2-GFP levels in yeast, primary screen, S. cerevisiae, multiplex flow cytometry (AID 1867);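 also: median GFP channel fluorescence of barcode-gated MEP2-GFP cells measured by flow cytometry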
Conditions: S. cerevisiae MEP2-GFP strain, 3 h, at 10 µM, active compounds read high, 100% means same as DMSO wells
Records with an inconclusive call do not appear.
Numbers only; they are read as %.

Some solved entries appear below for comparison.
CC1(C)C2CCC1(C)C(OCC[N+](C)(C)CC(=O)OC1CCCCC1)C2 (stereo not given) : 104
COc1cc2c(cc1OC)C(Cc1ccc(O)cc1)N(C)CC2 (stereo not given) : 127
COC(=O)c1ccc(CC(=O)c2ccc(O)cc2O)o1 : 119
CCOc1cc(C)cc2oc(=O)cc(-c3ccccc3)c12 : 105
CCCCC1C(=O)N(c2ccccc2)N(c2ccccc2)C1=O : 117
CC1(C)c2ccccc2N2CC(=O)N(CC(N)=O)C21C (stereo not given) : 99.9
CCN(Cc1ccncc1)Cc1nc(Cc2ccccc2Cl)no1 : 98.9
CCS(=O)(=O)CCn1c([N+](=O)[O-])cnc1C : 106
Cc1cc(-c2nn(-c3ccccc3F)cc2CN2CCC(O)CC2)c(C)s1 : 98.9
COc1cc(C2C(C(=O)c3ccc(C)o3)=C(O)C(=O)N2Cc2cccnc2)ccc1O (stereo not given) : 119

Continue with the next molecule.
Please report the recorded GFP response vs DMSO for CC(=O)O[C@]1(C(C)=O)CC[C@H]2[C@@H]3C=C(Cl)C4=CC(=O)CC[C@]4(C)[C@H]3CC[C@@]21C .
89.7
